Below, each entry is listed alongside its reported EC50.
SYSTEM_UNDER_TEST: NS5B polymerase protein (Hepatitis C virus genotype 1a)
Construct: pre-incubated with the RNA template and NS5B polymerase protein; Replizyme
ASSAY_PROCEDURE: biochemical
CONDITION_SET: pre-incubated 37° C. 30 minutes; RdRp reaction 90 minutes at 37° C.; read-out: HCV NS5B inhibition EC50

>  <COMPOUND>
CC(C)CCc1c2n(c(O)c(C3=NS(=O)(=O)c4cc(NS(C)(=O)=O)ccc4N3)c1=O)CCCC2 [Compound 220]

>  <SYSTEM_UNDER_TEST>
NS5B polymerase protein (Hepatitis C virus genotype 1a)

>  <EC50>
< 0.1 µM

$$$$
>  <COMPOUND>
CS(=O)(=O)Nc1ccc2c(c1)S(=O)(=O)N=C(c1cccc(C(F)(F)F)c1)N2 [Compound 224]

>  <SYSTEM_UNDER_TEST>
NS5B polymerase protein (Hepatitis C virus genotype 1a)

>  <EC50>
10 to 50 µM

$$$$
>  <COMPOUND>
CC(C)CCn1cc(C2=NS(=O)(=O)c3cc(NS(C)(=O)=O)ccc3N2)c2ccc(C(C)C)cc21 [Compound 211]

>  <SYSTEM_UNDER_TEST>
NS5B polymerase protein (Hepatitis C virus genotype 1a)

>  <EC50>
1 to 10 µM

$$$$
>  <COMPOUND>
CC(C)CCn1c(=O)c(C2=NS(=O)(=O)c3cc(NS(C)(=O)=O)ccc3N2)c(O)n2nc(C3CC3)cc12 [Compound 234]

>  <SYSTEM_UNDER_TEST>
NS5B polymerase protein (Hepatitis C virus genotype 1a)

>  <EC50>
10 to 50 µM

$$$$
>  <COMPOUND>
Cc1cccc2c(CCC(C)C)c(=O)c(C3=NS(=O)(=O)c4cc(NS(C)(=O)=O)ccc4N3)c(O)n12 [Compound 249]

>  <SYSTEM_UNDER_TEST>
NS5B polymerase protein (Hepatitis C virus genotype 1a)

>  <EC50>
0.1 to 1 µM

$$$$
>  <COMPOUND>
CS(=O)(=O)Nc1ccc2c(c1)S(=O)(=O)N=C(c1c(O)n3ccccc3c(Cc3ccccc3F)c1=O)N2 [Compound 237]

>  <SYSTEM_UNDER_TEST>
NS5B polymerase protein (Hepatitis C virus genotype 1a)

>  <EC50>
< 0.1 µM

$$$$
>  <COMPOUND>
CC(C)(C)CCc1c(=O)c(C2=NS(=O)(=O)c3cc(NS(C)(=O)=O)ccc3N2)c(O)n2ccccc12 [Compound 227]

>  <SYSTEM_UNDER_TEST>
NS5B polymerase protein (Hepatitis C virus genotype 1a)

>  <EC50>
< 0.1 µM

$$$$

###

Below, each entry is listed alongside its reported EC50.
SYSTEM_UNDER_TEST: NS5B polymerase protein (Hepatitis C virus genotype 1a, UniProt P27958)
Construct: pre-incubated with the RNA template and NS5B polymerase protein; Replizyme
Sequence (P27958 2421-3011): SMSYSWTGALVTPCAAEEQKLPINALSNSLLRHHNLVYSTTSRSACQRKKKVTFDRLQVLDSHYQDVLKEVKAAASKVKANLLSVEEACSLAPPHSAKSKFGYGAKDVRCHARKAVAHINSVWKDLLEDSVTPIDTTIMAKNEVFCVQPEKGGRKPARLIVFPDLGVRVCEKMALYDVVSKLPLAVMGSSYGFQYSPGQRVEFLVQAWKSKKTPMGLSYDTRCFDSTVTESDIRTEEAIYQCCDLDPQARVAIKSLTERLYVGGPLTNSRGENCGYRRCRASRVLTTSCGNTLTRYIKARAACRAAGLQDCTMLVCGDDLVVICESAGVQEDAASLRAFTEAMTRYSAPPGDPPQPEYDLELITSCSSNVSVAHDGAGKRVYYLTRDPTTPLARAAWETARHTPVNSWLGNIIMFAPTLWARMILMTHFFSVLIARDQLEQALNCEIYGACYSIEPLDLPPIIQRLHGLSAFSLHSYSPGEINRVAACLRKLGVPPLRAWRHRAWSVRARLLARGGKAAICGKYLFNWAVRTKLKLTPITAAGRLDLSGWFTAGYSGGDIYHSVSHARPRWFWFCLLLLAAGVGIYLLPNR
ASSAY_PROCEDURE: biochemical
CONDITION_SET: pre-incubated 37° C. 30 minutes; RdRp reaction 90 minutes at 37° C.; read-out: HCV NS5B inhibition EC50
Protocol: The compounds were tested in the Replizyme HCV heterotemplate radioactive RNA-dependent RNA-polymerase (RdRp) assay. The test compounds were pre-incubated with the RNA template and NS5B polymerase protein at 37° C. for 30 minutes. The RdRp reaction was initiated with the addition of the NTPs to the buffer-NS5B-compound mix, and was allowed to proceed for 90 minutes at 37° C. […]

>  <COMPOUND>
CC(C)CCn1cc(C2=NS(=O)(=O)c3cc(NS(C)(=O)=O)ccc3N2)c2cccc(Cl)c21

>  <EC50>
100 to 1000 nM

$$$$
>  <COMPOUND>
CC(C)CCn1nc(C2=NS(=O)(=O)c3cc(NS(C)(=O)=O)ccc3N2)c2ccccc21

>  <EC50>
100 to 1000 nM

$$$$
>  <COMPOUND>
CS(=O)(=O)Nc1ccc2c(c1)S(=O)(=O)N=C(c1c(O)n3ccccc3c(Cc3ccc(F)cc3)c1=O)N2

>  <EC50>
< 100 nM

$$$$
>  <COMPOUND>
CC(C)CCn1cc(C2=NS(=O)(=O)c3cc(NS(C)(=O)=O)ccc3N2)c2cc(Br)ccc21

>  <EC50>
1000 to 10000 nM

$$$$
>  <COMPOUND>
CS(=O)(=O)Nc1ccc2c(c1)S(=O)(=O)N=C(c1c(O)n3ccccc3c(Cc3cccs3)c1=O)N2

>  <EC50>
< 100 nM

$$$$
>  <COMPOUND>
CC(C)CCC1(C)C(=O)C(C2=NS(=O)(=O)c3cc(NS(C)(=O)=O)ccc3N2)=C(O)c2ccnn21 (stereo not drawn)

>  <EC50>
< 100 nM

$$$$
>  <COMPOUND>
CS(=O)(=O)Nc1ccc2c(c1)S(=O)(=O)N=C(c1c(O)n3nccc3n(Cc3ccc(F)cc3)c1=O)N2

>  <EC50>
10000 to 50000 nM

$$$$
>  <COMPOUND>
CC(C)CCc1c(=O)c(C2=NS(=O)(=O)c3cc(NS(C)(=O)=O)ccc3N2)c(O)n2cc(F)ccc12

>  <EC50>
< 100 nM

$$$$
>  <COMPOUND>
Cc1ccc2c(CCC(C)C)c(=O)c(C3=NS(=O)(=O)c4cc(NS(C)(=O)=O)ccc4N3)c(O)n2c1

>  <EC50>
< 100 nM

$$$$
>  <COMPOUND>
CC(C)CCn1c(=O)c(C2=NS(=O)(=O)c3cc(NS(C)(=O)=O)ccc3N2)c(O)n2ccnc12

>  <EC50>
< 100 nM

$$$$
>  <COMPOUND>
O=S1(=O)NC(c2c(O)c(Br)c3ccccc3c2O)=Nc2ccccc21

>  <EC50>
1000 to 10000 nM

$$$$
>  <COMPOUND>
CS(=O)(=O)Nc1ccc2c(c1)S(=O)(=O)N=C(c1c(O)n3ccccc3c(Cc3ccccc3)c1=O)N2

>  <EC50>
< 100 nM

$$$$
>  <COMPOUND>
CS(=O)(=O)Nc1ccc2c(c1)S(=O)(=O)N=C(c1c(O)n3ccccc3c(CCC3CC3)c1=O)N2

>  <EC50>
1000 to 10000 nM

$$$$
>  <COMPOUND>
CS(=O)(=O)Nc1ccc2c(c1)S(=O)(=O)N=C(c1c(O)n3nccc3n(Cc3ccccc3)c1=O)N2

>  <EC50>
1000 to 10000 nM

$$$$
>  <COMPOUND>
CC(C)CCn1cc(C2=NS(=O)(=O)c3cc(NS(C)(=O)=O)ccc3N2)c2cc(Cl)ccc21

>  <EC50>
1000 to 10000 nM

$$$$
